Assay: Cytotoxicity against human WI38 cells at 10 ug/mL by MTT assay
Format: cell-based
Details: wi-38
value-type: Activity

// solved cases for Activity follow
- CC/C=C/C=C/[C@]1(C)OC(CC(C)O)=CC1=O (stereo not given in full): Non-toxic
- COC1=CC(=O)OC1(O)C(C)C (stereo not given): Non-toxic
- COCC(C)C1(O)OC(=O)C=C1OC (stereo not given): Non-toxic
- COC1=CC(=O)C[C@](C)(O)[C@H]1O (relative stereo): Non-toxic

## Task Returns the measured Activity for the input compound. Input: C=CC(C)(C)[C@]12CC3C(=O)Nc4ccccc4C(=O)N3[C@H]1N(C(C)=O)c1ccccc12 (stereo not given in full)
## Result Non-toxic

* * *

Hi there, I'd appreciate the recorded pIC50 for every entry that follows.
Tested on: SF-268
Assay: Cytotoxicity against human SF268 cells by MTT assay
Type: functional, cell-based
In textbook form, pIC50 equals minus log to base ten of the concentration in mol/L.

## Task # query: pIC50 | item C[C@H]1CCCC(O)CC(=O)c2c(O)cc(O)cc2CC(=O)O1 (stereo partly specified) | system: SF-268
## Result 5.39

## Task What do you get for C=C(C)C1(O)OC(=O)C=C1OC (stereo unspecified) [PENICILLIC ACID] ?
## Result 4.70

## Task Here is the next molecule: COC1CCC[C@H](C)OC(=O)Cc2cc(O)cc(O)c2C(=O)C1 (stereo partly specified)
## Result 6.05

## Task Moving on to `C/C=C/C1=CC(=O)[C@](C)(/C=C/C=C/CC)O1`
## Result 5.17

## Task Proceed to C[C@H]1CCC/C=C/C(=O)c2c(O)cc(O)cc2CC(=O)O1 [DEHYDROCURVULARIN]
## Result 5.60

## Task Again, but for C=CC(C)(C)c1[nH]c2ccccc2c1C1=C(O)C(=O)C(c2c[nH]c3ccccc23)=C(CC=C(C)C)C1=O [TERREQUINONE A]
## Result 4.86
